All values here come from PubChem BioAssay AID1159580.

Quick reference: normalized growth of the listed items.
Test: chemical genetic growth profiling, strain panel (AID 1159580);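 note: tested at 20 µM; growth read once vehicle control cultures reached saturation at 30 °C; 1 = growth at the plate median or of vehicle wells; lower values mean less growth of the strain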
Conditions: S. cerevisiae deletion strains, growth OD, locus YLR330W, strain CHS5, active compounds read low
Among all 5,500 compounds or so, about 2,000 (36%) were called active. About 18% were inconclusive and are not listed. Some of the results follow.
Measured Metric: normalized growth

{"Molecule": "CC(C)(C)NCC(O)c1cc(O)cc(O)c1 (stereo not given)", "Test Result": 0.976}
{"Molecule": "CC(=O)OCC1=C(C(=O)O)N2C(=O)[C@@H](NC(=O)Cc3cccs3)[C@H]2SC1", "Test Result": 0.99}
{"Molecule": "CNC(C)C(O)c1ccccc1 (stereo not given)", "Test Result": 1}
{"Molecule": "C=C[C@H]1CN2CC[C@H]1C[C@@H]2[C@@H](OC(=O)OCC)c1ccnc2ccc(OC)cc12", "Test Result": 1.01}
{"Molecule": "CC/C(=C(/CC)c1ccc(O)cc1)c1ccc(O)cc1", "Test Result": 0.981}
{"Molecule": "O=c1c(O)c(-c2ccc(O)c(O)c2)oc2cc(O)cc(O)c12", "Test Result": 0.991}
{"Molecule": "O=C(O[C@@H]1Cc2c(O)cc(O)cc2O[C@@H]1c1cc(O)c(=O)c2c(O)c(O)cc([C@H]3Oc4cc(O)cc(O)c4C[C@H]3O)c2c1)c1cc(O)c(O)c(O)c1", "Test Result": 0.791}
{"Molecule": "COc1ccccc1/C=C\\C(=O)O", "Test Result": 1.03}
{"Molecule": "CC1CC[C@@]2(OC1)O[C@H]1CC3C4CC[C@@H]5C[C@@H](O)CC[C@]5(C)C4CC[C@]3(C)[C@H]1[C@@H]2C (stereo not given in full)", "Test Result": 1.02}
{"Molecule": "Oc1cc2c(cc1O)C1c3ccc(O)c(O)c3OCC1(O)C2 (stereo not given)", "Test Result": 0.974}
{"Molecule": "C[C@@H]([C@H](O)c1ccccc1)N(C)C", "Test Result": 1.01}
{"Molecule": "COc1ccc2c(c1)CCC1C2CC[C@@]2(C)C1CC[C@@H]2O (stereo not given in full)", "Test Result": 0.748}
{"Molecule": "NC(N)=NC(=O)c1nc(Cl)c(N)nc1N", "Test Result": 1.01}
{"Molecule": "C[C@]12CCC3c4ccc(O)cc4CCC3C1C[C@@H](O)[C@@H]2O (stereo not given in full)", "Test Result": 0.984}
{"Molecule": "COc1ccc(-c2oc3cc(O[C@H]4O[C@H](CO)[C@@H](O)[C@H](O)[C@H]4O)c(OC)c(O)c3c(=O)c2OC)cc1O", "Test Result": 1.01}
{"Molecule": "NC(CSCSCC(N)C(=O)O)C(=O)O (stereo not given)", "Test Result": 1.01}
{"Molecule": "CC(=O)Oc1ccc2c(c1OC(C)=O)OCC1(O)Cc3c(cc(OC(C)=O)c(OC(C)=O)c3OC(C)=O)C21 (stereo not given)", "Test Result": 1.02}
{"Molecule": "COc1ccc2c(c1)CCC1C2CCC2(C)C1C[C@@H](O)C2O (stereo not given in full)", "Test Result": 1.01}
{"Molecule": "O=C(O[C@@H]1Cc2c(O)cc(O)cc2O[C@@H]1c1cc(O)c(=O)c2c(O)c(O)cc([C@H]3Oc4cc(O)cc(O)c4C[C@H]3OC(=O)c3cc(O)c(O)c(O)c3)c2c1)c1cc(O)c(O)c(O)c1", "Test Result": 0.898}
{"Molecule": "CC1CCC2(OC1)OC1CC3C4CC[C@H]5C[C@@H](O)CC[C@]5(C)C4CC(=O)[C@]3(C)C1C2C (stereo not given in full)", "Test Result": 1.02}
